FYI, the data here is from ChEMBL document CHEMBL3797190.

- Test system: Mycobacterium avium
- experimental-protocol: Antimycobacterial activity against Mycobacterium avium CNCTC My 330/88 after 14 days by microdilution method
- Format: functional
- measurement-conditions: CNCTC My 330/88, 336 h
value-kind: MIC99 (µM)
Just the number please, in µM, no unit attached.

Example compounds with recorded MIC99:
O=[N+]([O-])c1cc(CSc2nnc(-c3cccc(Cl)c3)o2)cc([N+](=O)[O-])c1: 16
O=[N+]([O-])c1ccc(CSc2nnc(-c3ccc([N+](=O)[O-])cc3)s2)cc1: 250
COc1ccc(-c2nnc(SCc3cc([N+](=O)[O-])cc([N+](=O)[O-])c3)s2)cc1: 8

Q. Entry Cc1nnc(SCc2cc([N+](=O)[O-])cc([N+](=O)[O-])c2)o1 : reported MIC99 = ?
A. 500

Q. Quick one: MIC99 of O=[N+]([O-])c1cc(CSc2nnc(-c3ccccc3Cl)s2)cc([N+](=O)[O-])c1 ?
A. 16

Q. Need MIC99, item O=[N+]([O-])c1cc(CSc2nnc(-c3ccc(Cl)cc3)s2)cc([N+](=O)[O-])c1
A. 8
